- TEST_PROTOCOL: protein stability index of a GFP-peptide fusion (GPS, HEK-293T) (PSI 1-6); higher = more stable;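 note: 24-mer peptide tiles fused after GFP, lentivirally expressed, FACS-sorted into six equal bins by GFP/DsRed ratio, decoded by Illumina sequencing, PSI is the read-weighted mean bin number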
- CONDITION_DETAILS: treatment: MLN4924 1 uM, 8 h; c terminus: a fixed tail appended
The reader will find reported protein stability index values listed item by item below.
RECORDED_METRIC: protein stability index

> print(dat)
                       primary.sequence          recorded.metric  reading
 1    ENYLEYRQVPGSDPACYEFLWGPR [MAGEA3]  protein stability index     3.17
 2     RTIVEEVQDGKVISSREQVHQTTR [KRT17]  protein stability index     5.01
 3      PAPSPAKEERKTEVVMNSQQTPVG [PALM]  protein stability index     5.46
 4     KSHVMDQAINNAINYLGAESLRPL [IKZF1]  protein stability index     2.49
 5    PSPAPAVAAAAAATTAATAAATTT [SNAP91]  protein stability index     5.39
 6    ATTAATAAATTTTTTSAATATTAP [SNAP91]  protein stability index     5.52
 7     YLIIRTLGKLIPRHQSIFKSNGFF [CDKL4]  protein stability index     2.72
 8      ENQEKTEDQYEENSHLTSVPHWIN [ETS2]  protein stability index     4.95
 9   MEEDIDTRKINNSFLRDHSYATEA [PPP2R2B]  protein stability index     4.72
10      TPSVPPPASQHSTPAGLPPSRAKP [FBF1]  protein stability index     5.22
11     FGDLSLSLVTVGKHLTARVLCLIV [POMT2]  protein stability index     2.71
12    VTKITLESFLAWKKRKRQEKIDKL [ZC3H15]  protein stability index      2.6
13   LAMWTTALLHQAETLQPSVWFGGR [TMEM175]  protein stability index     2.82
14      SGPMQAALQAAAHASVDIKDVLDF [SMG5]  protein stability index     4.18
15     GSLPGPGQTSGAREPPQAVSIKEA [VENTX]  protein stability index     5.52
16  AGRQSVSGRKNSTSKDLVTLGASS [C6orf223]  protein stability index     4.49
17    LHVSLGQKLVAAYVLGLLTMVFLR [MOSPD3]  protein stability index     2.89
18    AVIYLGYCFCGWIVLGPYHVKFRS [MCOLN1]  protein stability index     2.86
19      GAFDSFLLRFGVPSPSTLEPHPRP [TNXB]  protein stability index     2.97
20      DFDGKLKDIAGEFKEQLQALIPYV [ATL3]  protein stability index     2.94
21   PAPAFQPFFFTGAFPFNMQELVLK [ANKRD40]  protein stability index     2.77
22    YILDNETNFVVQVSVFIGVLIDLW [CLPTM1]  protein stability index     2.59
23    RMLMKRLDVTVQSFGWSDRAKVKT [FAM98B]  protein stability index     2.34
24     LLLLLLTFFLRTDAETPPRFTRTP [PTPRD]  protein stability index     2.36
25    VFPPEVPISEKAKDLILRFCIDSE [STK38L]  protein stability index     3.32
26    SLFCYEDQEAVCLICAISHTHRAH [TRIM39]  protein stability index     2.19
27    MSQRNLNAKTEQGPTGVTMTSNPI [CDK11A]  protein stability index     4.64
28      KLASHTRDTTGVSQMFPSSKARTK [FBF1]  protein stability index     4.58
29    KLLKSMPILQGQIDALLEFDVHPN [SNAP91]  protein stability index     2.33
30     HGQENIVRILLRRGVDVSLQGKDA [RIPK4]  protein stability index     3.13
31    GLQRNLLVENIIDIYKQECSSRPL [TRIM63]  protein stability index     2.87
32   QETVLVEERRVVHASGDASYSAGD [EPB41L3]  protein stability index     5.38
33     DFRTKYETELSLRQLVEADINGLR [KRT36]  protein stability index     3.38
34     MSLRNRLSKSRENPEEDEDQRNPA [SOAT1]  protein stability index     5.45
35    LKPAMTQAQDEVEQERRLSEARLS [FCHSD1]  protein stability index     5.19
36     IGVILFSSAVYFAEADEPTTHFQS [KCNA4]  protein stability index     2.69
37    SACTVALHIFQLNEDGPSSENLEE [TRIP13]  protein stability index     3.33
38      SSVQSYPGSASLAQSRLEDPGQDL [DLX1]  protein stability index     5.09
39     AHFSPFLYYQSQELPNGSVKEAPA [PDZK1]  protein stability index     3.33
40    QGEYSRKLEERFMTLAANHELMLR [CCDC89]  protein stability index     3.18
41     QVALLRLTWSELFVLNAAQCSMPL [NR2F2]  protein stability index        3
42    ILAIIAKEGDCAPEEKIWEELSVL [MAGEA6]  protein stability index     2.48
43      SEGFESDSSHDSARASEGSDSGSD [SMG5]  protein stability index      5.7
44     ICKEVQAEQEPTRKLFEVESVTHH [SPAG8]  protein stability index     4.77
45    FFVSSINTLVTKTMEDTLMTVKQY [ARFIP2]  protein stability index     3.05
46      SPGKQPGENSDCHRDSSQAIPITE [ZNF8]  protein stability index     5.43
47    KDTVICAMKITQEPQGLGYWEAWR [SPACA3]  protein stability index     2.22
48    PPRKSGSFHSSGEKQKQPRWREGT [PBXIP1]  protein stability index     4.38
49      SYGGGSASSQHSEGSRSSGSNRSG [DVL3]  protein stability index     5.16
50     EIPLVIKYKKAVGLKLKQEKKEAY [WDR88]  protein stability index     2.56
51     VSRRTSEACMTHLHYKWIPVEDSH [DUSP5]  protein stability index     3.08
52      KVMIHPDPERRPSAMALVKHSVLL [WEE1]  protein stability index     2.34
53    PTGEGSISHEEQKSVRLARELESR [CHCHD6]  protein stability index     5.35

====

The reader will find reported protein stability index values listed item by item below.
- TEST_PROTOCOL: protein stability index of a GFP-peptide fusion (GPS, HEK-293T) (PSI 1-6); higher = more stable
- CONDITION_DETAILS: treatment: DMSO; c terminus: a fixed tail appended
RECORDED_METRIC: protein stability index

> print(dat)
                       primary.sequence  reading
 1    DLPVVQGSSSFSLKGYPSLMRSQS [TRIM29]     3.03
 2   LWDRAYVRLKPALQRLDFSVRGYM [RETREG3]      2.5
 3    LSSVPSEAQISDPFAPEPTPPTTT [SNAP91]     5.38
 4   AREGSSEPWLPLTDGRSPRRSRDP [PLEKHN1]     5.17
 5     NTPFQLSIAPPEAEGVVLSDSPDA [PPTC7]     5.41
 6   ACSEGDVNAVRKLLIEGRSVNEHT [ANKRD17]     4.22
 7     RMETPKSREITTLANNQCMATESV [EHMT1]     4.56
 8     DVTGSVKSERRNLLEDDSDEEEDF [VAMP4]     5.57
 9     ILKLEQENCTLVTTFRGHTGGVTA [WDFY2]     2.79
10     KSHVMDQAINNAINYLGAESLRPL [IKZF1]     2.58
11  GVVDSEDLPLNISREMLQQSKILK [HSP90AB1]     4.09
12   SDGILRGNGTGYLPGRGRVLSSWS [RHOBTB2]     3.42
13      IYVKLIEECTDLQKEGEFSTCFTE [OAS1]     2.37

====

- TEST_PROTOCOL: protein stability index of a GFP-peptide fusion (GPS, HEK-293T) (PSI 1-6); higher = more stable
- CONDITION_DETAILS: treatment: MLN4924 1 uM, 8 h; c terminus: a fixed tail appended
Response key: met means protein stability index >= 3; not met means protein stability index < 3.

> print(dat)
                      primary.sequence  category.label
 1     SNMKSRYTTEFHELEKIGSGEFGS [WEE1]             met
 2      DIREEIRKVVQSLEQTAREILTLL [TSN]             met
 3  LGHMFMYFLRGSLPWQGLKADTLK [CSNK1G3]         not met
 4   LGDRDRSRAALVCRKWNQMMYSAE [FBXO39]         not met
 5     DTLGLGKTRRKTSARDASPTPSTD [NCK2]             met
 6   DEKQCKQCANKVLQHMKAVQADQE [LRRC59]             met
 7  TVGCSSQHTPDQANSDRASIGRRR [PLEKHN1]             met
 8   AREGAGLVVASGVIYCLGGYDGLN [KLHL12]         not met
 9   IHLSAPCIYSEVMEALKLQPGLSF [PCMTD1]         not met
10     TLNKCAVMKLEISPHRKRSDDSDE [DLC1]             met
11     MERTGGIGDSRPPSFHPHAGGGSQ [DVL3]             met
12   TAGQERYRAITSAYYRGAVGALLV [RAB11A]         not met
